Reference source for all entries: ChEMBL document CHEMBL1806453

TARGET_OR_SYSTEM: Nucleic Acid
METHOD_DESCRIPTION: Binding affinity to 2-AP labeled mutant RNA7 by fluorescence binding assay
Type: nucleic-acid assay

{"STRUCTURE_NOTATION": "NC[C@@H]1O[C@H](O[C@H]2[C@@H](O)[C@H](O[C@@H]3[C@@H](O)[C@H](N)C[C@H](N)[C@H]3O[C@H]3O[C@H](CN)[C@@H](O)[C@H](O)[C@H]3N)O[C@@H]2CO)[C@H](N)[C@@H](O)[C@@H]1O", "Kd": "1100 nM"}
{"STRUCTURE_NOTATION": "CO[C@@H]1C[C@H](NC(=O)[C@@H]2C[C@H](O[C@H]3O[C@H](CN)[C@@H](O)[C@H](O)[C@H]3N)[C@@H](N)C[C@H]2N)[C@@H](N)C[C@H]1N", "Kd": "2900 nM"}

###

TARGET_OR_SYSTEM: Nucleic Acid
METHOD_DESCRIPTION: Binding affinity to 2-AP labeled RNA1 by fluorescence binding assay
Format: nucleic-acid assay
Below: a set of entries, each annotated with reported Kd.
ASSAY_METRIC: Kd (nM)

{"STRUCTURE_NOTATION": "CO[C@@H]1C[C@H](NC(=O)[C@@H]2C[C@H](O[C@H]3O[C@H](CN)[C@@H](O)[C@H](O)[C@H]3N)[C@@H](N)C[C@H]2N)[C@@H](N)C[C@H]1N", "TARGET_OR_SYSTEM": "Nucleic Acid", "ASSAY_METRIC": "Kd", "MEASURED_VALUE": 2200}
{"STRUCTURE_NOTATION": "NC[C@@H]1O[C@H](O[C@H]2[C@@H](O)[C@H](O[C@@H]3[C@@H](O)[C@H](N)C[C@H](N)[C@H]3O[C@H]3O[C@H](CN)[C@@H](O)[C@H](O)[C@H]3N)O[C@@H]2CO)[C@H](N)[C@@H](O)[C@@H]1O", "TARGET_OR_SYSTEM": "Nucleic Acid", "ASSAY_METRIC": "Kd", "MEASURED_VALUE": 1500}

###

TARGET_OR_SYSTEM: Nucleic Acid
METHOD_DESCRIPTION: Binding affinity to 2-AP labeled mutant RNA6 by fluorescence binding assay
Assay type: nucleic-acid assay
pKd: −log10 of the molar value.

{"STRUCTURE_NOTATION": "CO[C@@H]1C[C@H](NC(=O)[C@@H]2C[C@H](O[C@H]3O[C@H](CN)[C@@H](O)[C@H](O)[C@H]3N)[C@@H](N)C[C@H]2N)[C@@H](N)C[C@H]1N", "pKd": 5.85}

###

TARGET_OR_SYSTEM: Nucleic Acid
METHOD_DESCRIPTION: Binding affinity to 2-AP labeled mutant RNA4 by fluorescence binding assay
Assay type: nucleic-acid assay
pKd: −log10 of the molar value.

{"STRUCTURE_NOTATION": "CO[C@@H]1C[C@H](NC(=O)[C@@H]2C[C@H](O[C@H]3O[C@H](CN)[C@@H](O)[C@H](O)[C@H]3N)[C@@H](N)C[C@H]2N)[C@@H](N)C[C@H]1N", "pKd": 5.77}
